Target: T1, orthogonal hCD122 receptor (hoRb), hCD122 with H133D and Y134F (human, UniProt P14784 27-550); further: reference of the scale not given here
T1 sequence: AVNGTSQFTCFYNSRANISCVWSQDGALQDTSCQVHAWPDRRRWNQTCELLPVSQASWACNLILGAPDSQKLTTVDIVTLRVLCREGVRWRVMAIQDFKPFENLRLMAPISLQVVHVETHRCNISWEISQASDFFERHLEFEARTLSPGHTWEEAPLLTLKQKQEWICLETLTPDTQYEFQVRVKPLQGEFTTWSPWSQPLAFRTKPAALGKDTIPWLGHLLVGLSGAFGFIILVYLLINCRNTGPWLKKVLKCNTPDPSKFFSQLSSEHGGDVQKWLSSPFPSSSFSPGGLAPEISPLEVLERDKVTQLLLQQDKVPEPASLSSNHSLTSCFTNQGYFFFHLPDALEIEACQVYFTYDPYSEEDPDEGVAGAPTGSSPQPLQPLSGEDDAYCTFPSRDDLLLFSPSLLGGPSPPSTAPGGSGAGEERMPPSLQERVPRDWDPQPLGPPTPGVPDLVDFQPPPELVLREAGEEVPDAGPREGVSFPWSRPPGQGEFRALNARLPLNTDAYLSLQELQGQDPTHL
Experiment: cell-based or functional assay
measuredParameter: Relative Proliferation Fold Change NKL 1:50

binder="G27K, SQVLKA (ligand) APTSSSTKKTQLQLSQLLVLLKAILNKINNYKNPKLTRMLTFKFYMPKKATELKHLQCLEEELKPLEEVLNLAQSKNFHLRPRDLISNINVIVLELKGSETTFMCEYADETATIVEFLNRWITFCQSIISTLT" measvalue="1.03 fold"
binder="Q126T, SQVLKA (ligand) APTSSSTKKTQLQLSQLLVLLKAILNGINNYKNPKLTRMLTFKFYMPKKATELKHLQCLEEELKPLEEVLNLAQSKNFHLRPRDLISNINVIVLELKGSETTFMCEYADETATIVEFLNRWITFCTSIISTLT" measvalue="0.41 fold"
binder="ΔM23, SQVLK- (ligand) APTSSSTKKTQLQLSQLLVLLKILNGINNYKNPKLTRMLTFKFYMPKKATELKHLQCLEEELKPLEEVLNLAQSKNFHLRPRDLISNINVIVLELKGSETTFMCEYADETATIVEFLNRWITFCQSIISTLT" measvalue="0.73 fold"
binder="V91R, SQVLKA (ligand) APTSSSTKKTQLQLSQLLVLLKAILNGINNYKNPKLTRMLTFKFYMPKKATELKHLQCLEEELKPLEEVLNLAQSKNFHLRPRDLISNINRIVLELKGSETTFMCEYADETATIVEFLNRWITFCQSIISTLT" measvalue="0.44 fold"
